This collection of values is drawn from patent US8748422B2.

- study target: UniProt P46098
- Sequence (P46098 24-478): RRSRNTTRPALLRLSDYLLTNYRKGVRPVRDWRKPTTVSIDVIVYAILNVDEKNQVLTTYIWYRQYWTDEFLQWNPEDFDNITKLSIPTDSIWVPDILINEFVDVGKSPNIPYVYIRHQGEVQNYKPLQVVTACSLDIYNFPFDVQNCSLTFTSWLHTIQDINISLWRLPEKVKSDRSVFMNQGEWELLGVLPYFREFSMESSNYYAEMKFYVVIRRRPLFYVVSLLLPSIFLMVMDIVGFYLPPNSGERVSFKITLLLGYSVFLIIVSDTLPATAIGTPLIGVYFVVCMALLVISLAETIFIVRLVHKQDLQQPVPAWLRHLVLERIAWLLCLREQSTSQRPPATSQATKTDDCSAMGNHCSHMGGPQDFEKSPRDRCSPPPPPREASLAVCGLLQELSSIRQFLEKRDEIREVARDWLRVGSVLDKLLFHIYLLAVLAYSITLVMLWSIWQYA
- assay notes: Assay for 5-HT3A receptor: two-electrode voltage clamp in Xenopus oocytes, inhibition of 5-HT-induced inward current
- Format: cell-based
- run parameters: 5-HT3A receptor expressed in Xenopus laevis oocytes; inward current induced by 5-HT (1 μM); from concentration-response curves; read-out: Vmax (maximum inhibition value)
measurement label: inhibition (%)
Unit % implied. Number only.

Cn1c(=O)[nH]c2cc(C(=O)NCCN3CCCCC3)ccc2c1=O [Compound 12]    103
CCCn1c(=O)[nH]c2cc(C(=O)NCCN3CCCCC3)ccc2c1=O [Compound 11]    104
O=C(NCCCN1CCOCC1)c1ccc2c(=O)n(Cc3ccc(Cl)cc3)c(=O)[nH]c2c1 [Compound 16]    52.5
O=C(NCCN1CCCCC1)c1ccc2c(=O)n(Cc3cccc(F)c3)c(=O)[nH]c2c1 [Compound 5]    108
CCC1CCCCN1CCCNC(=O)c1ccc2c(=O)n(Cc3ccc(Cl)cc3)c(=O)[nH]c2c1 (centres unmarked) [Compound 18]    99.5
O=C(NCCN1CCCC1)c1ccc2c(=O)n(Cc3ccc(Cl)cc3)c(=O)[nH]c2c1 [Compound 1]    103
O=C(NCCN1CCCCC1)c1ccc2c(=O)n(Cc3ccccc3Cl)c(=O)[nH]c2c1 [Compound 13]    96

Now, please, on to the next molecule.
Could you please provide reported inhibition for O=C(NCCN1CCCCC1)c1ccc2c(=O)n(Cc3ccc(Cl)cc3)c(=O)[nH]c2c1 [Compound 14] ? Thanks!
106

###

inhibition by entry:
- study target: serotonin 5-HT3A receptor (Homo sapiens)
- assay notes: Assay for 5-HT3A receptor: two-electrode voltage clamp in Xenopus oocytes, inhibition of 5-HT-induced inward current
- Type: cell-based
- run parameters: 5-HT3A receptor expressed in Xenopus laevis oocytes; inward current induced by 5-HT (1 μM); from concentration-response curves; read-out: Vmax (maximum inhibition value)

Consider the worked cases shown below.
COc1ccc(-n2c(=O)[nH]c3cc(C(=O)NCCN4CCCCC4)ccc3c2=O)cc1    101%
O=C(NCCN1CCCCC1)c1ccc2c(=O)n(-c3ccc(F)cc3)c(=O)[nH]c2c1    108%

Now, please, on to the next compound.
Could you please provide reported inhibition for CC1CCCCN1CCNC(=O)c1ccc2c(=O)n(Cc3ccc(Cl)cc3)c(=O)[nH]c2c1 (stereo not shown) ? Thanks!
104%
